# target: full-length ATR (Homo sapiens, UniProt Q13535)
# Construct: Assays were carried out at 25° C. in the presence of 5 nM full-length ATR
# Sequence (Q13535 whole entry): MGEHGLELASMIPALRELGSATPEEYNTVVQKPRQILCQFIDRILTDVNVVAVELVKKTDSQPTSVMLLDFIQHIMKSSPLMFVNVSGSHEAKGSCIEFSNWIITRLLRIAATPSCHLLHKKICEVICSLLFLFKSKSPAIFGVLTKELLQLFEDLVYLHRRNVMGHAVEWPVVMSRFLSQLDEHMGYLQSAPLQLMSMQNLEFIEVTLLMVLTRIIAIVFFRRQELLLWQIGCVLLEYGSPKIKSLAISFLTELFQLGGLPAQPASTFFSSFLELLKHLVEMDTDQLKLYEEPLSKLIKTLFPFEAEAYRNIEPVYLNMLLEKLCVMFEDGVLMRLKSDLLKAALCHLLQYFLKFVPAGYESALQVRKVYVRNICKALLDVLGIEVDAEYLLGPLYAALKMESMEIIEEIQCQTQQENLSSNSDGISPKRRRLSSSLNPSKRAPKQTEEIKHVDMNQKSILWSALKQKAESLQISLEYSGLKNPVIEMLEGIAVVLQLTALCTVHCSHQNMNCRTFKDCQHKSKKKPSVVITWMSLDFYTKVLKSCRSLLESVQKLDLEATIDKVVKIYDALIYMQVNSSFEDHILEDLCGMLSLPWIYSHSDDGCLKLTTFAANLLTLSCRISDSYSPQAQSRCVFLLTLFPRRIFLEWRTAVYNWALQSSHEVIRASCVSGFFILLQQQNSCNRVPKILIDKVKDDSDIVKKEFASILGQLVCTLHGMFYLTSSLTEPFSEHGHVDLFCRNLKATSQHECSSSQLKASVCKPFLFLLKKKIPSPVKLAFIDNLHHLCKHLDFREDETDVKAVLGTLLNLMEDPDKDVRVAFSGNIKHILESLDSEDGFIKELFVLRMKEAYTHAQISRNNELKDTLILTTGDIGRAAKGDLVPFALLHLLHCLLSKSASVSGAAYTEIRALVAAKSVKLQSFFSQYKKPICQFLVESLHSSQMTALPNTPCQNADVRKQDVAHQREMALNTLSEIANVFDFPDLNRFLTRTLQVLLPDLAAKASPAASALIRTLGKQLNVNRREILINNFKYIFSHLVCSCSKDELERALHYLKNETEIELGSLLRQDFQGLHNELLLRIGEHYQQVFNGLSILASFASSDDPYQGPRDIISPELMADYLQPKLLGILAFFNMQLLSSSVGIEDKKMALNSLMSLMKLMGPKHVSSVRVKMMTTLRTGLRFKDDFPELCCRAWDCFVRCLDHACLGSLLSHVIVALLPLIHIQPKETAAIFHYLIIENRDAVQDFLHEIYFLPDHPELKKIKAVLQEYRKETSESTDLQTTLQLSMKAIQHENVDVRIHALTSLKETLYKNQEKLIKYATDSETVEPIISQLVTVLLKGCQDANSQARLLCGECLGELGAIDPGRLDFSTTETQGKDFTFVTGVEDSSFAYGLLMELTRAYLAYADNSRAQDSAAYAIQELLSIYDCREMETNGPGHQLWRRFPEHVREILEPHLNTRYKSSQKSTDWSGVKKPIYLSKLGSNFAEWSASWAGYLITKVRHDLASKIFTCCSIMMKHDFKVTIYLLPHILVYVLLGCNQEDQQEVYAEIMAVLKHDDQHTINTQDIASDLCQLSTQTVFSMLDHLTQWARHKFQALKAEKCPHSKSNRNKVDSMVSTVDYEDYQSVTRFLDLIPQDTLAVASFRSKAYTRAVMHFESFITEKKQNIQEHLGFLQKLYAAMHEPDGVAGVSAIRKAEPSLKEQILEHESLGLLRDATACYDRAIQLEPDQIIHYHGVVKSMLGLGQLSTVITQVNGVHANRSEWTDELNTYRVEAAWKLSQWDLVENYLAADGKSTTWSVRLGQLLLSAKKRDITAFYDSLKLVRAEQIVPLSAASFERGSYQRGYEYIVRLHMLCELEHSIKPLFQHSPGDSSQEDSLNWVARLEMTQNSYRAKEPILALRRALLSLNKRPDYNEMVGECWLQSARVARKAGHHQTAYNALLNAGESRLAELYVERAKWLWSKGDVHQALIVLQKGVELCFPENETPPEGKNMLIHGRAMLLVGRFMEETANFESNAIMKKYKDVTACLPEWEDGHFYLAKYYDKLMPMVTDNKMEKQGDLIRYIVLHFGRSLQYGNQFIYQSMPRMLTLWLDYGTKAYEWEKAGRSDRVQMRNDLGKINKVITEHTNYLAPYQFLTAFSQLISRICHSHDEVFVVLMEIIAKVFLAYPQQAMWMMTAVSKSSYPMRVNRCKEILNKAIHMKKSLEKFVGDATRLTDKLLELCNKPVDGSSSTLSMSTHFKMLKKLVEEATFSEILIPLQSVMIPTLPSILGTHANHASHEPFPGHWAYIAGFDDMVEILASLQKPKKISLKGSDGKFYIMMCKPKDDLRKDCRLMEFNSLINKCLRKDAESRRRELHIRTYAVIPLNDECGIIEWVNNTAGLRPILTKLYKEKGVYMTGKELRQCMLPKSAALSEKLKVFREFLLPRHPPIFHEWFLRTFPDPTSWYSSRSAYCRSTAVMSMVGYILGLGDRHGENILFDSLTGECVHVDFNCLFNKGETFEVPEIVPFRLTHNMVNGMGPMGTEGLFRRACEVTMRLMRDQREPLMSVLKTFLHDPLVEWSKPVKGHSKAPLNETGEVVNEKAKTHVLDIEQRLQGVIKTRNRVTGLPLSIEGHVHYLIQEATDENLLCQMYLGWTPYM
# methodNotes: ATR Inhibition Assay (radioactive-phosphate incorporation)
# reportedConditions: Ki(app); 5 nM full-length ATR, 10 μM ATP, 800 μM target peptide, 25° C.
pKi: −log10 of the molar value.
Each entry below lists one item and its recorded pKi value.

Dear colleague, I am looking for the recorded pKi of the following compound: CCn1cc(-c2c[nH]c3ncc(-c4ccc(S(=O)(=O)C(C)C)cc4)nc23)cn1
< 7.30

Tell me the measured pKi of Cc1n[nH]c(C)c1-c1c[nH]c2ncc(-c3ccc(S(=O)(=O)C(C)C)cc3)nc12 , please.
< 7.30

For the compound CC(C)S(=O)(=O)c1ccc(-c2cnc3[nH]cc(-c4cc(O[C@H](C)c5ccccc5Cl)c(C(=O)O)s4)c3n2)cc1 , what pKi is on record?
≥ 8.00

Consider the compound CC(C)S(=O)(=O)c1ccc(-c2cnc3[nH]cc(-c4csc(C(=O)O)c4)c3n2)cc1 and give its measured pKi.
≥ 8.00

---

# target: full-length ATR (Homo sapiens, UniProt Q13535)
# Construct: Assays were carried out at 25° C. in the presence of 5 nM full-length ATR
# methodNotes: ATR Inhibition Assay (radioactive-phosphate incorporation)
# reportedConditions: Ki(app); 5 nM full-length ATR, 10 μM ATP, 800 μM target peptide, 25° C.
pKi: −log10 of the molar value.
observationType: pKi

CC(C)S(=O)(=O)c1ccc(-c2cnc3[nH]cc(-c4cccnc4F)c3n2)cc1    ≥ 8.00
CC(C)S(=O)(=O)c1ccc(-c2cnc3[nH]cc(-c4ccc(OCCCN(C)C)nc4)c3n2)cc1    < 7.30
CC(C)S(=O)(=O)c1ccc(-c2cnc3[nH]cc(-c4ccc(-c5nnn[nH]5)cc4)c3n2)cc1    < 7.30
Cc1ccc(-c2c[nH]c3ncc(-c4ccc(S(=O)(=O)C(C)C)cc4)nc23)cn1    7.30 to 8.00
CC(C)S(=O)(=O)c1ccc(-c2cnc3[nH]cc(-c4ccnc5ccccc45)c3n2)cc1    < 7.30

Entry Cc1cscc1-c1c[nH]c2ncc(-c3ccc(S(=O)(=O)C(C)C)cc3)nc12 , system full-length ATR (Homo sapiens, UniProt Q13535): what pKi was measured?
< 7.30

Give pKi (full-length ATR (Homo sapiens, UniProt Q13535)) of the following molecule: CC(C)S(=O)(=O)c1ccc(-c2cnc3[nH]cc(-c4ccncc4)c3n2)cc1
7.30 to 8.00

Request - read-out pKi | tested on full-length ATR (Homo sapiens, UniProt Q13535) | molecule COc1ncc(-c2c[nH]c3ncc(-c4ccc(S(=O)(=O)C(C)C)cc4)nc23)c(OC)n1
< 7.30

---

# target: full-length ATR (Homo sapiens, UniProt Q13535)
# Construct: Assays were carried out at 25° C. in the presence of 5 nM full-length ATR
# methodNotes: ATR Inhibition Assay (radioactive-phosphate incorporation)
# reportedConditions: Ki(app); 5 nM full-length ATR, 10 μM ATP, 800 μM target peptide, 25° C.
pKi: −log10 of the molar value.
observationType: pKi

CC(C)S(=O)(=O)c1ccc(-c2cnc3[nH]cc(-c4cncc5ccccc45)c3n2)cc1 [Compound I-42]    7.30 to 8.00
CC(C)S(=O)(=O)c1ccc(-c2cnc3[nH]cc(-c4ccccc4CO)c3n2)cc1 [Compound I-16]    < 7.30

Query molecule follows.
Name the recorded pKi for CC(C)S(=O)(=O)c1ccc(-c2cnc3[nH]cc(-c4ccccc4C(=O)N(C)C)c3n2)cc1 [Compound I-19] .
< 7.30
